Molecular target: beta-catenin/TCF4 engagement (Homo sapiens, UniProt P35222)
Construct: expressed in transfected cells; host or cells: HEK293
Sequence (P35222 whole entry): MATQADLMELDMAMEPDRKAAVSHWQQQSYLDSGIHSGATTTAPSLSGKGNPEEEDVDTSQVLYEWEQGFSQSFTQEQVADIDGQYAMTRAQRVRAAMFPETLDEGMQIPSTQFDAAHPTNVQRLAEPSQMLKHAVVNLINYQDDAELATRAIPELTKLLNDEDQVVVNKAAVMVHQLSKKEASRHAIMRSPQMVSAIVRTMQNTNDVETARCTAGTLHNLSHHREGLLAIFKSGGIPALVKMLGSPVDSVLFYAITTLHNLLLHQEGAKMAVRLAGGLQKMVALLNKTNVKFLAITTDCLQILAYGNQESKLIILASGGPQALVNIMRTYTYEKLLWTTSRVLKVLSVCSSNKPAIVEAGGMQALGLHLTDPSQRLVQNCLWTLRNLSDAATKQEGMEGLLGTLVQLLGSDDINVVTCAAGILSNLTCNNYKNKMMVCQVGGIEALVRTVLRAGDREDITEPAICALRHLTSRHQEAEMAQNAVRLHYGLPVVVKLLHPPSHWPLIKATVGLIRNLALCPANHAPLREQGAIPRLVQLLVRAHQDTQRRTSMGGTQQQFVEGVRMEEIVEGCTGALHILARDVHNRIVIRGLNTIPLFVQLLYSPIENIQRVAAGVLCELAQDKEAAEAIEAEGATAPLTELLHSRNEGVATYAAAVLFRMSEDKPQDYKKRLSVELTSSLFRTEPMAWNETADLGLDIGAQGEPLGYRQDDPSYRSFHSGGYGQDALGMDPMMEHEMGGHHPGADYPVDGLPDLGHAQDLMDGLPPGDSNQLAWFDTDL
Experiment: Nano-BRET target engagement assay (B-cat-Halo & TCF4-Luc in HEK293 cells)
Type: cell-based
Details: absolute IC50; read-out: NanoBRET Abs IC50
IC50 values, listed per item
Recorded metric: IC50 (µM)

INSERT INTO assay_data (compound, comparative_sign, reading) VALUES
  ('CC(=O)N1CCC[C@]12CC=CCCCC1(CCCC=CCCCCCC[C@@](C)(C(=O)N[C@@H](Cc3ccccc3)C(=O)N[C@@H](Cc3csc4ccccc34)C(=O)N[C@@H](CCC(N)=O)C(N)=O)NC(=O)[C@H](CCO)NC(=O)[C@H](Cc3ccccc3)NC(=O)[C@H](C)NC(=O)[C@H](C)NC(=O)[C@H](CC(=O)O)NC(=O)[C@H](CC(=O)O)NC1=O)NC(=O)[C@H](CC(C)(C)C)NC(=O)[C@H](CC(=O)O)NC2=O (stereo partly drawn)', '=', 11.3),
  ('CC(=O)N1CCC[C@]12CC=CCCCC1(CCCC=CCCCOC(=O)N3CC[C@@](C(=O)N[C@@H](Cc4ccccc4C(F)(F)F)C(=O)N[C@@H](Cc4csc5cccc(Cl)c45)C(=O)N[C@@H](CCC(N)=O)C(N)=O)(C3)NC(=O)[C@H](CC(C)C)NC(=O)[C@H](Cc3ccccc3)NC(=O)[C@H](C)NC(=O)[C@H](C)NC(=O)[C@H](Cc3cccc(C(=O)O)c3)NC(=O)[C@H](CC(=O)O)NC1=O)NC(=O)[C@H](CC(C)(C)C)NC(=O)[C@H](CC(=O)O)NC2=O (stereo partly drawn)', '=', 6.4),
  ('CCCC[C@@H]1NC(=O)[C@H](CC(=O)O)NC(=O)[C@]2(CC=CCCCC3(CCCC=CCCCOC(=O)N4CC[C@@](C(=O)N[C@@H](Cc5ccccc5)C(=O)N[C@@H](Cc5csc6ccccc56)C(=O)N[C@@H](CCC(N)=O)C(N)=O)(C4)NC(=O)[C@H](CCCC)NC(=O)[C@H](Cc4ccccc4)NC(=O)[C@H](C)NC(=O)[C@H](C)NC(=O)[C@H](CC(=O)O)NC(=O)[C@H](CC(=O)O)NC3=O)NC1=O)CCCN2C(C)=O (stereo partly drawn)', '=', 40.1),
  ('CC(=O)N1CCC[C@]12CC=CCCCC1(CCCC=CCCCOC(=O)N3CC[C@@](C(=O)N[C@@H](Cc4ccccc4)C(=O)N[C@@H](Cc4csc5ccccc45)C(=O)N[C@@H](Cc4c[nH]cn4)C(N)=O)(C3)NC(=O)[C@H](CC(N)=O)NC(=O)[C@H](Cc3ccccc3)NC(=O)[C@H](C)NC(=O)[C@H](C)NC(=O)[C@H](CCC(=O)O)NC(=O)[C@H](CC(=O)O)NC1=O)NC(=O)[C@H](CC(C)(C)C)NC(=O)[C@H](CC(=O)O)NC2=O (stereo partly drawn) [I-693]', '=', 28.5),
  ('CC(=O)N1CCC[C@]12CC=CCCCC1(CCCC=CCCCOC(=O)N3CC[C@@](C(=O)N[C@@H](Cc4ccccc4C(F)(F)F)C(=O)N[C@@H](Cc4csc5c(Cl)cccc45)C(=O)N[C@@H](C)C(N)=O)(C3)NC(=O)[C@H](CC(C)C)NC(=O)[C@H](Cc3ccccc3)NC(=O)[C@H](C)NC(=O)[C@H](CCC(N)=O)NC(=O)[C@H](Cc3cccc(C(=O)O)c3)NC(=O)[C@H](CC(=O)O)NC1=O)NC(=O)[C@H](CC(C)(C)C)NC(=O)[C@H](CC(=O)O)NC2=O (stereo partly drawn)', '=', 4.2),
  ('CC(=O)N1CCC[C@]12CC=CCCCC1(CCCC=CCCCOC(=O)N3CC[C@@](C(=O)N[C@@H](Cc4ccsc4)C(=O)N[C@@H](Cc4csc5ccccc45)C(=O)N[C@@H](CCC(N)=O)C(N)=O)(C3)NC(=O)[C@H](CC(C)C)NC(=O)[C@H](Cc3ccccc3)NC(=O)[C@H](C)NC(=O)[C@H](C)NC(=O)[C@H](CCN(CC(=O)O)C(=O)c3ccccn3)NC(=O)[C@H](CC(=O)O)NC1=O)NC(=O)[C@H](CC(C)(C)C)NC(=O)[C@H](CC(=O)O)NC2=O (stereo partly drawn)', '=', 5.9),
  ('CC(=O)N1CCC[C@]12CC=CCCCC1(CCCC=CCCCOC(=O)N3CC[C@@](C(=O)N[C@@H](Cc4ccccc4C(F)(F)F)C(=O)N[C@@H](Cc4csc5ccccc45)C(=O)N[C@@H](C)C(N)=O)(C3)NC(=O)[C@H](CC(C)C)NC(=O)[C@H](Cc3ccccc3)NC(=O)[C@H](C)NC(=O)[C@H](CCC(N)=O)NC(=O)[C@H](Cn3cc(C(C)(C)C(=O)O)nn3)NC(=O)[C@H](CC(=O)O)NC1=O)NC(=O)[C@H](CC(C)(C)C)NC(=O)[C@H](CC(=O)O)NC2=O (stereo partly drawn)', '=', 9.5),
  ('CC(=O)N1CCC[C@]12CC=CCCCC1(CCCC=CCCCOC(=O)N3CC[C@@](C(=O)N[C@@H](Cc4ccccc4)C(=O)N[C@@H](Cc4csc5ccccc45)C(=O)N[C@@H](CO)C(N)=O)(C3)NC(=O)[C@H]([C@@H](C)O)NC(=O)[C@H](Cc3ccccc3)NC(=O)[C@H](C)NC(=O)[C@H](C)NC(=O)[C@H]([C@@H](C)O)NC(=O)[C@H](CC(=O)O)NC1=O)NC(=O)[C@H](CC(C)(C)C)NC(=O)[C@H](CC(=O)O)NC2=O (stereo partly drawn)', '=', 20),
  ('CC(=O)N1CCC[C@]12CC=CCCCC1(CCCC=CCCCOC(=O)N3CC[C@@](C(=O)N[C@@H](Cc4ccsc4)C(=O)N[C@@H](Cc4csc5ccccc45)C(=O)N[C@@H](CCC(N)=O)C(N)=O)(C3)NC(=O)[C@H](CC(C)C)NC(=O)[C@H](Cc3ccccc3)NC(=O)[C@H](C)NC(=O)[C@H](C)NC(=O)[C@H](CC(=O)O)NC(=O)[C@H](CC(=O)O)NC1=O)NC(=O)[C@H](CCCCNC(=O)COCCOCCNC(=O)CC[C@@H](C)[C@H]1CC[C@H]3[C@@H]4CC[C@@H]5C[C@H](O)CC[C@]5(C)[C@H]4CC[C@]13C)NC(=O)[C@H](CC(=O)O)NC2=O (stereo partly drawn)', '>', 20);

---

IC50 values, listed per item
Target: beta-catenin/TCF4 engagement (Homo sapiens, UniProt P35222)
Construct: expressed in transfected cells; host or cells: HEK293
Assay: Nano-BRET target engagement assay (B-cat-Halo & TCF4-Luc in HEK293 cells)
Assay type: cell-based
Conditions: absolute IC50; read-out: NanoBRET Abs IC50
Recorded metric: IC50 (µM)

INSERT INTO results (molecule, tested_target, recorded_metric, reading) VALUES
  ('CC(=O)N1CCC[C@]12CC=CCCCC1(CCCC=CCCCOC(=O)N3CC[C@@](C(=O)N[C@@H](Cc4ccsc4)C(=O)N[C@@H](Cc4csc5ccccc45)C(=O)N[C@@H](CCC(N)=O)C(N)=O)(C3)NC(=O)[C@H](CC3CCCCC3)NC(=O)[C@H](Cc3ccccc3)NC(=O)[C@H](C)NC(=O)[C@H](C)NC(=O)[C@H](CN(CC(=O)O)CC(F)(F)F)NC(=O)[C@H](CC(=O)O)NC1=O)NC(=O)[C@H](CC(C)(C)C)NC(=O)[C@H](CC(=O)O)NC2=O (stereo partly drawn) [I-1774]', 'beta-catenin/TCF4 engagement (Homo sapiens, UniProt P35222)', 'IC50', 8.9),
  ('CC(=O)N1CCC[C@]12CC=CCCCC1(CCCC=CCCCOC(=O)N3CC[C@@](C(=O)N[C@@H](Cc4ccccc4C(F)(F)F)C(=O)N[C@@H](Cc4csc5ccccc45)C(=O)N[C@@H](CCC(N)=O)C(=O)N[C@@H](CC(C)C)C(=O)N[C@@H](C(N)=O)[C@H](C)O)(C3)NC(=O)[C@H](CC(C)C)NC(=O)[C@H](Cc3ccccc3)NC(=O)[C@H](C)NC(=O)[C@H](C)NC(=O)[C@H](Cc3cccc(C(=O)O)c3)NC(=O)[C@H](CC(=O)O)NC1=O)NC(=O)[C@H](CC(C)(C)C)NC(=O)[C@H](CC(=O)O)NC2=O (stereo partly drawn) [I-2397]', 'beta-catenin/TCF4 engagement (Homo sapiens, UniProt P35222)', 'IC50', 7.8),
  ('CC(=O)N1CCC[C@]12CC=CCCCC1(CCCC=CCCCOC(=O)N3CC[C@@](C(=O)N[C@@H](Cc4ccsc4)C(=O)N[C@@H](Cc4csc5ccccc45)C(=O)N[C@@H](CCC(=O)N4CCN(CCCN(C)C)CC4)C(N)=O)(C3)NC(=O)[C@H](CC(C)C)NC(=O)[C@H](Cc3ccccc3)NC(=O)[C@H](C)NC(=O)[C@H](C)NC(=O)[C@H](CN(CC(=O)O)CC(F)(F)F)NC(=O)[C@H](CC(=O)O)NC1=O)NC(=O)[C@H](CC(C)(C)C)NC(=O)[C@H](CC(=O)O)NC2=O (stereo partly drawn) [I-1800]', 'beta-catenin/TCF4 engagement (Homo sapiens, UniProt P35222)', 'IC50', 25.2),
  ('CCCC[C@@H]1NC(=O)[C@H](CC(=O)O)NC(=O)[C@]2(CC=CCCCC3(CCCC=CCCCCCC[C@@](C)(C(=O)N[C@@H](Cc4ccccc4)C(=O)N[C@@H](Cc4csc5ccccc45)C(=O)N[C@@H](CCC(N)=O)C(N)=O)NC(=O)[C@H](CCC(N)=O)NC(=O)[C@H](Cc4ccccc4)NC(=O)[C@H](C)NC(=O)[C@H](C)NC(=O)[C@H](CCC(=O)O)NC(=O)[C@H](CC(=O)O)NC3=O)NC1=O)CCCN2C(C)=O (stereo partly drawn) [I-1522]', 'beta-catenin/TCF4 engagement (Homo sapiens, UniProt P35222)', 'IC50', 5.8),
  ('CC(=O)N1CCC[C@]12CC=CCCCC1(CCCC=CCCCOC(=O)N3CC[C@@](C(=O)N[C@@H](Cc4ccsc4)C(=O)N[C@@H](Cc4csc5ccccc45)C(=O)N[C@@H](CCC(N)=O)C(N)=O)(C3)NC(=O)[C@H](CC(C)C)NC(=O)[C@H](Cc3cccc(C#N)c3)NC(=O)[C@H](C)NC(=O)[C@H](C)NC(=O)[C@H](CC(=O)O)NC(=O)[C@H](CC(=O)O)NC1=O)NC(=O)[C@H](CC(C)(C)C)NC(=O)[C@H](CC(=O)O)NC2=O (stereo partly drawn) [I-1201]', 'beta-catenin/TCF4 engagement (Homo sapiens, UniProt P35222)', 'IC50', 19.6),
  ('CC(=O)N1CCC[C@]12CC=CCCCC1(CCCC=CCCCOC(=O)N3CC[C@@](C(=O)N[C@@H](Cc4ccccc4Cl)C(=O)N[C@@H](Cc4cccc5ccccc45)C(=O)N[C@@H](CCC(N)=O)C(N)=O)(C3)NC(=O)[C@H](CC(C)C)NC(=O)[C@H](Cc3ccccc3)NC(=O)[C@H](C)NC(=O)[C@H](C)NC(=O)[C@H](CC(=O)O)NC(=O)[C@H](CC(=O)O)NC1=O)NC(=O)[C@H](CC(C)(C)C)NC(=O)[C@H](CC(=O)O)NC2=O (stereo partly drawn) [I-1236]', 'beta-catenin/TCF4 engagement (Homo sapiens, UniProt P35222)', 'IC50', 20.9),
  ('CC(=O)N1CCC[C@]12CC=CCCCC1(CCCC=CCCCOC(=O)N3CC[C@@](C(=O)N[C@@H](Cc4ccccc4Cl)C(=O)N[C@@H](Cc4csc5ccccc45)C(=O)N[C@@H](CCC(N)=O)C(N)=O)(C3)NC(=O)[C@H](CC(N)=O)NC(=O)[C@H](Cc3ccccc3)NC(=O)[C@H](C)NC(=O)[C@H](CCCCN)NC(=O)[C@H](CN(CC(=O)O)CC(F)(F)F)NC(=O)[C@H](CC(=O)O)NC1=O)NC(=O)[C@H](CC(C)(C)C)NC(=O)[C@H](CC(=O)O)NC2=O (stereo partly drawn) [I-1011]', 'beta-catenin/TCF4 engagement (Homo sapiens, UniProt P35222)', 'IC50', 20.8),
  ('CC[C@@H]1NC(=O)[C@H](Cc2ccccc2)NC(=O)[C@H](C)NC(=O)C(C)(C)NC(=O)[C@H](Cc2cccc(C(=O)O)c2)NC(=O)[C@H](CC(=O)O)NC(=O)C2(CCCC=CCCCOC(=O)N3CC[C@@](C(=O)N[C@@H](Cc4ccsc4)C(=O)N[C@@H](Cc4csc5ccccc45)C(=O)N[C@@H](CCC(=O)N(C)C)C(=O)N[C@@H](C)C(N)=O)(C3)NC1=O)CCCC=CC[C@]1(CCCN1C(C)=O)C(=O)N[C@@H](CC(=O)O)C(=O)N[C@@H](CC(C)(C)C)C(=O)N2 (stereo partly drawn) [I-2469]', 'beta-catenin/TCF4 engagement (Homo sapiens, UniProt P35222)', 'IC50', 2.3),
  ('CC(=O)N1CCC[C@]12CC=CCCCC1(CCCC=CCCCOC(=O)N3CC[C@@](C(=O)N[C@@H](Cc4ccsc4)C(=O)N[C@@H](Cc4cccc(Cl)c4)C(=O)N[C@@H](C)C(N)=O)(C3)NC(=O)[C@H](C(C)C)NC(=O)[C@H](Cc3ccccc3)NC(=O)[C@H](C)NC(=O)[C@H](CCC(N)=O)NC(=O)[C@H](Cc3cccc(C(=O)O)c3)NC(=O)[C@H](CC(=O)O)NC1=O)NC(=O)[C@H](CC(C)(C)C)NC(=O)[C@H](CC(=O)O)NC2=O (stereo partly drawn) [I-2225]', 'beta-catenin/TCF4 engagement (Homo sapiens, UniProt P35222)', 'IC50', 7.8);

Values were extracted from patent US20240116985A1.
